- TESTED_TARGET: neutral endopeptidase (NEP, EC 3.4.24.11) (Rattus norvegicus)
- Sequence (P07861 1-750): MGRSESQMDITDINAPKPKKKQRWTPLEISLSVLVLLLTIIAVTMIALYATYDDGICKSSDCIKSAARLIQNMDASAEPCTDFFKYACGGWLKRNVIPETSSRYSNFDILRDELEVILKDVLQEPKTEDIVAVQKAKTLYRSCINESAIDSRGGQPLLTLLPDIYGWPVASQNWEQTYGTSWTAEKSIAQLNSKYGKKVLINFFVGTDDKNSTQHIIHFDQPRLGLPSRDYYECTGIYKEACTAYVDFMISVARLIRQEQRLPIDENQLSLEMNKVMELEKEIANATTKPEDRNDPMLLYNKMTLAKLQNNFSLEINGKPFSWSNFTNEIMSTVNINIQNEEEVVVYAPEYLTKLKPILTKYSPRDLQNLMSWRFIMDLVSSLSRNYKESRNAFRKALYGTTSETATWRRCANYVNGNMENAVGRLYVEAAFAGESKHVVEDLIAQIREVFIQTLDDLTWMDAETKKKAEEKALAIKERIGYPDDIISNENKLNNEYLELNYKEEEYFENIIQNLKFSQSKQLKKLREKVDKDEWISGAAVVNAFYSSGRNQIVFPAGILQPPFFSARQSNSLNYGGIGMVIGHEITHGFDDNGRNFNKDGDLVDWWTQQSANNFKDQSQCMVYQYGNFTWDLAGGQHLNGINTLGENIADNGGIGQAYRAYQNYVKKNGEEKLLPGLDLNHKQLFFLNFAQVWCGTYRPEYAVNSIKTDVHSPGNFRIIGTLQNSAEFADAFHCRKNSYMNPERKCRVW
pIC50: −log10 of the molar value.
ASSAY_METRIC: pIC50

Give the measured pIC50 for CC(C)[C@H](S)C(=O)NC(C)(C)C(=O)N[C@@H](Cc1ccc(O)cc1)C(=O)O
~8.04
